- Tested on: HAB1
- TEST SUMMARY: Yeast two hybrid of pBD-PYR1 site saturation mutants with pACT-HAB1 on 10 μM ABA, β-galactosidase staining
- Format: cell-based, Arabidopsis
- Set-up: key: x: Mutations in PYR1 that disrupt ABA-induced binding to PYR1 to HAB1
- ASSAY CONDITIONS: S. cerevisiae Y190, 10 μM ABA; dead = lack of visible staining in comparison to wild type control
- Source text: To systematically identify mutations in PYR1 that disrupt its binding to HAB1, we utilized a collection of saturating mutations that contain all possible single amino acid substitutions in 24 conserved interface residues involved in binding HAB1, which was previously constructed for the purpose of engineering constitutively active ABA receptor variants (Mosquna et al., 2011). […]
ENDPOINT NAME: Mutations in PYR1 that disrupt ABA-induced binding to PYR1 to HAB1

>  <MOLECULE>
D155I: PYR1 mutant (protein, UniProt O49686 1-191, looked up, variant D155I) Abscisic acid receptor PYR1: MPSELTPEERSELKNSIAEFHTYQLDPGSCSSLHAQRIHAPPELVWSIVRRFDKPQTYKHFIKSCSVEQNFEMRVGCTRDVIVISGLPANTSTERLDILDDERRVTGFSIIGGEHRLTNYKSVTTVHRFEKENRIWTVVLESYVVDMPEGNSEDITRMFADTVVKLNLQKLATVAEAMARNSGDGSGSQVT

>  <RESULT>
x

$$$$
>  <MOLECULE>
T156N: PYR1 mutant (protein, UniProt O49686 1-191, looked up, variant T156N) Abscisic acid receptor PYR1: MPSELTPEERSELKNSIAEFHTYQLDPGSCSSLHAQRIHAPPELVWSIVRRFDKPQTYKHFIKSCSVEQNFEMRVGCTRDVIVISGLPANTSTERLDILDDERRVTGFSIIGGEHRLTNYKSVTTVHRFEKENRIWTVVLESYVVDMPEGNSEDDNRMFADTVVKLNLQKLATVAEAMARNSGDGSGSQVT

>  <RESULT>
x

$$$$
